Measured IC50 (UniProt:P17812)
Sequence (P17812 whole entry): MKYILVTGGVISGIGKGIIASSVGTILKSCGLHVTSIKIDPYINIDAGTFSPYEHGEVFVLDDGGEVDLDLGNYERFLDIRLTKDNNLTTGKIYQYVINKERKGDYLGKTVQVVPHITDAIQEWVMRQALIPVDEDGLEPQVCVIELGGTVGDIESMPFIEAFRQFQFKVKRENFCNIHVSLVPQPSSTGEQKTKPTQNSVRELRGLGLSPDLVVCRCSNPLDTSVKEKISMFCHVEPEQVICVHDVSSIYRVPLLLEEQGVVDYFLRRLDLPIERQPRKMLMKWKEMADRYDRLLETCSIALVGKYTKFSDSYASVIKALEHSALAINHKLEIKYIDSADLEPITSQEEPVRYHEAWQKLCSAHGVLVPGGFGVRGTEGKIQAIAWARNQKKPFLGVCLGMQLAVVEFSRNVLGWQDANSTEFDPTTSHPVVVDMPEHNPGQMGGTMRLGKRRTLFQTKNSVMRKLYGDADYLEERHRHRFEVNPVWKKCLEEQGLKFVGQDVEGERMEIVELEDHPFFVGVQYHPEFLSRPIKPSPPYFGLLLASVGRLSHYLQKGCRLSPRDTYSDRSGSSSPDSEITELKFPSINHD

>>> print(df.to_string())
                                   compound  reported_value
0  CCOc1cncc(-c2cnc(C(=O)N[C@H](CN3CCN(C4CC4)CC3)c3cc(NS(=O)(=O)C4CC4)ccn3)s2)n1 (single isomer, unassigned)        < 0.1 µM

In: Request: IC50, test system UniProt:P17812, entry CCOc1cncc(-c2ccc(C(=O)NCc3nsc(NS(=O)(=O)C4CC4)n3)cc2)n1
Out: < 0.1 µM

In: UniProt:P17812 / IC50 / CCOc1cncc(-c2cnc(C(=O)N[C@@H](CCN3CCCC3)c3cc(NS(=O)(=O)C4CC4)ccn3)s2)n1 : value?
Out: < 0.1 µM

In: What value of IC50 on UniProt:P17812 does CCOc1cncc(-c2cnc(C(=O)NC(CCCN)c3cc(NS(=O)(=O)C4CC4)ccn3)s2)n1 (centres unmarked) have?
Out: < 0.1 µM

In: Give the reported IC50 for CCOc1cncc(N2CCN(C(=O)NCc3cc(NS(=O)(=O)C4CC4)ccn3)C(=O)C2)n1 (system: UniProt:P17812).
Out: ≥ 1 µM

In: Recorded IC50 for CCOc1cncc(-c2ccc(C(=O)NCc3cc(NS(=O)(=O)C4CC4)cnn3)nc2)n1 with UniProt:P17812, please?
Out: < 0.1 µM

In: Give UniProt:P17812 IC50 for CCOc1cncc(-c2ccc(NC(=O)C(C)(C)n3ccc(NS(=O)(=O)C4CC4)n3)nc2)n1
Out: 0.1 to 1 µM

In: Lookup: IC50 / UniProt:P17812 / CCOc1cncc(-c2cnc(C(=O)N[C@@H](CN3CCCC3)c3cc(NS(=O)(=O)C4CC4)ccn3)s2)n1
Out: < 0.1 µM

In: Which IC50 is reported with UniProt:P17812 for this entry: CCOc1cncc(-c2cnc(C(=O)N[C@@H](C[C@H]3CCCCN3)c3cc(NS(=O)(=O)C4CC4)ccn3)s2)n1 (single isomer, unassigned) ?
Out: < 0.1 µM

In: UniProt:P17812 / IC50 / CCOc1cncc(-c2cnc(C(=O)N[C@@H](CCN3CC[C@H](F)C3)c3cc(NS(=O)(=O)C4CC4)ccn3)s2)n1 : value?
Out: < 0.1 µM

Data origin, for the record: patent US12331046B2
